Target: KRAS G12V (Homo sapiens (Human), UniProt P01116+P62937, G12V)
Sequence (P01116-2 other isoform, or with tags, fused parts or gaps G12V): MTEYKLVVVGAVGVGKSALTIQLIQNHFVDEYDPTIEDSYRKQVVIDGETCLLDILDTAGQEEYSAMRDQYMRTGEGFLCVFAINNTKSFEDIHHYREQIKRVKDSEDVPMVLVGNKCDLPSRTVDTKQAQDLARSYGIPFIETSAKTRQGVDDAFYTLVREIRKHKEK
Sequence (P62937 whole entry): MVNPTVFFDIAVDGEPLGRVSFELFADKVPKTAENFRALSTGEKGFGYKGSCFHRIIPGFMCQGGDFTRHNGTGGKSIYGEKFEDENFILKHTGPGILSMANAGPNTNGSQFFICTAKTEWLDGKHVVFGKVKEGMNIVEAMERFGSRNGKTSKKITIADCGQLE
Assay: Ras-Raf (BRAF RBD) disruption / FRET / MOA assay, KRAS G12V
Type: biochemical
Conditions: read-out: IC50* KRAS G12V FRET data
MEASURE: IC50

C=CC(=O)N1CC[C@H](C(=O)N(C)[C@H](C(=O)N[C@H]2Cc3cc(O)cc(c3)-c3ccc4c(c3)c(c(-c3cccnc3CNC)n4CC)CC(C)(C)COC(=O)[C@@H]3CCCN(N3)C2=O)C(C)C)C1 [Example A137] = 1 to 10 µM
C=CC(=O)N1CC[C@H](C(=O)N(C)[C@H](C(=O)N[C@H]2Cn3cnc(n3)-c3ccc4c(c3)c(c(-c3cccnc3[C@H](C)OC)n4CC)CC(C)(C)COC(=O)[C@@H]3CCCN(N3)C2=O)C(C)C)C1 (atropisomer, axis not shown) [Example A506] = 1 to 10 µM
C=CC(=O)N(C)CCN1CCN(C(=O)N(C)[C@H](C(=O)N[C@H]2Cc3nc(cs3)-c3ccc4c(c3)c(c(-c3cccnc3[C@H](C)OC)n4CC)CC(C)(C)COC(=O)[C@@H]3CCCN(N3)C2=O)C(C)C)CC1 (atropisomer, axis not shown) [Example A630] = 0.1 to 1 µM
C/C=C/C(=O)N1CC2(CCN(C(=O)N(C)[C@H](C(=O)N[C@H]3Cc4nc(cs4)-c4ccc5c(c4)c(c(-c4cccnc4[C@H](C)OC)n5CC)CC(C)(C)COC(=O)[C@@H]4CCCN(N4)C3=O)C(C)C)CC2)C1 (atropisomer, axis not shown) [Example A671] = 0.1 to 1 µM
CCn1c(-c2cccnc2[C@H](C)OC)c2c3cc(ccc31)-c1cccc(c1)C[C@H](NC(=O)[C@H](C(C)C)N1CC[C@@]3(CCN(C(=O)C#C[C@H]4COCCN4C4COC4)C3)C1=O)C(=O)N1CCC[C@H](N1)C(=O)OCC(C)(C)C2 (atropisomer, axis not shown) [Example A567] = 1 to 10 µM
C=CC(=O)N1CC[C@H](C(=O)N(C)[C@H](C(=O)N[C@H]2Cc3cc(O)cc(c3)-c3ccc4c(c3)c(c(-c3cc(CN(C)C)cnc3[C@H](C)OC)n4CC)CC(C)(C)COC(=O)[C@@H]3CCCN(N3)C2=O)C(C)C)C1 (atropisomer, axis not shown) [Example A536] = 0.1 to 1 µM
CCn1c(-c2cccnc2COC)c2c3cc(ccc31)-c1cc(O)cc(c1)C[C@H](NC(=O)[C@H](C(C)C)N(C)C(=O)[C@H]1CCC(C(=O)/C=C\CN(C)C)C1)C(=O)N1CCC[C@H](N1)C(=O)OCC(C)(C)C2 (stereo partly drawn) [Example A161] = 1 to 10 µM
CCn1c(-c2cccnc2COC)c2c3cc(ccc31)-c1cc(O)cc(c1)C[C@H](NC(=O)[C@H](C(C)C)N(C)C(=O)[C@H]1CCN(C(=O)/C=C/CN(C)C)C1)C(=O)N1CCC[C@H](N1)C(=O)OCC(C)(C)C2 [Example A054] = 0.1 to 1 µM
CCn1c(-c2cccnc2[C@H](C)OC)c2c3cc(ccc31)-c1csc(n1)C[C@H](NC(=O)[C@H](C(C)C)N(C)C(=O)N1CC(N(C)C(=O)/C=C/CN(C)C)C1)C(=O)N1CCC[C@H](N1)C(=O)OCC(C)(C)C2 (atropisomer, axis not shown) [Example A710] = 0.1 to 1 µM
CCn1c(-c2cccnc2[C@H](C)OC)c2c3cc(ccc31)-c1cccc(c1)C[C@H](NC(=O)[C@@H](COC1CN(C(=O)C#CC(C)(C)N(C)C(C)C)C1)C(C)C)C(=O)N1CCC[C@H](N1)C(=O)OCC(C)(C)C2 (atropisomer, axis not shown) [Example A599] = 1 to 10 µM
C=CC(=O)N1CC[C@H](C(=O)N(C)[C@H](C(=O)N[C@H]2Cc3cccc(c3)-c3ccc4c(c3)c(c(-c3cccnc3[C@@H]3CCCO3)n4CC)CC(C)(C)COC(=O)[C@@H]3CCCN(N3)C2=O)C(C)C)C1 (atropisomer, axis not shown) [Example A512] = 1 to 10 µM
C=CC(=O)N1C[C@H](C(=O)N(C)[C@H](C(=O)N[C@H]2Cc3cccc(c3)-c3ccc4c(c3)c(c(-c3cccnc3[C@H](C)OC)n4CC)CC(C)(C)COC(=O)[C@@H]3CCCN(N3)C2=O)C(C)C)[C@H](C(F)(F)F)C1 (atropisomer, axis not shown) [Example A400] = > 10 µM
C=CC(=O)N1CC[C@@]2(C1)CN(C(=O)N(C)[C@H](C(=O)N[C@H]1Cc3nc(cs3)-c3ccc4c(c3)c(c(-c3cccnc3[C@H](C)OC)n4CC)CC(C)(C)COC(=O)[C@@H]3CCCN(N3)C1=O)C(C)C)CCO2 (atropisomer, axis not shown) [Example A353] = 0.1 to 1 µM
C=CC(=O)N1CCC[C@]12CCN(C(=O)N(C)[C@H](C(=O)N[C@H]1Cc3nc(cs3)-c3ccc4c(c3)c(c(-c3cccnc3[C@H](C)OC)n4CC)CC(C)(C)COC(=O)[C@@H]3CCCN(N3)C1=O)C(C)C)C2 (atropisomer, axis not shown) [Example A548] = 0.1 to 1 µM
C=CC(=O)N1CC2(CCCN2C(=O)N(C)[C@H](C(=O)N[C@H]2Cc3nc(cs3)-c3ccc4c(c3)c(c(-c3cccnc3[C@H](C)OC)n4CC)CC(C)(C)COC(=O)[C@@H]3CCCN(N3)C2=O)C(C)C)C1 (atropisomer, axis not shown) [Example A667] = 0.1 to 1 µM

From: patent US11566007B2
